Value source: patent US5668264

assay_system: PDGF AA (UniProt P04085 P04085:87-211)
procedure_summary: filter; monophasic
condition_details: chain copies: AA homodimer (inferred)
readout_type: Kd (nM)
A number alone suffices; assume nM.

IN: Query Kd for CCACAGGCTACGGCACGTAGAGCATCACCATGATCCTGTGT (ssDNA, 3'-3' inverted T at 3' end) [36t]
OUT: 72
